Recorded values, source paper PMC5078989.

Please go through the items and note down their EC50.
test system: panel of cancer cell lines; assay: Cell viability (CellTiter-Glo) dose-response across cancer cell line panel; type: cell-based, human; conditions: Homo sapiens, RD;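 further: after 72 h compound incubation with CellTiter-Glo ATP readout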
One number for each entry, in nM.

Worked set:
| compound | tested.target | EC50 / nM |
| --- | --- | --- |
| COCc1ccccc1NCc1ccc([C@H]2[C@@H](O)CCCc3cncn32)c(-c2ccccc2Cl)c1 [CSN5i-2] | panel of cancer cell lines | 1830 |
| CC(C)C[C@H](NC(=O)[C@H](Cc1ccccc1)NC(=O)c1cnccn1)B(O)O [Bortezomib] | panel of cancer cell lines | 7.69 |

// output EC50; input NS(=O)(=O)OC[C@@H]1C[C@@H](n2ccc3c(N[C@H]4CCc5ccccc54)ncnc32)C[C@@H]1O [MLN4924] ; system panel of cancer cell lines
722

* * *

tested on: panel of cancer cell lines; experiment: Cell viability (CellTiter-Glo) dose-response across cancer cell line panel; type: cell-based, human; conditions: Homo sapiens, IMR-32, IMR-32;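 further: after 72 h compound incubation with CellTiter-Glo ATP readout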
readout: pEC50
Answers are plain numbers, as −log10 of the molar value.

Please report the measured pEC50 for CC(C)C[C@H](NC(=O)[C@H](Cc1ccccc1)NC(=O)c1cnccn1)B(O)O [Bortezomib]
8.23

* * *

tested on: panel of cancer cell lines; experiment: Cell viability (CellTiter-Glo) dose-response across cancer cell line panel; format: cell-based, human; conditions: Homo sapiens, OCI-AML-5, OCI-AML5;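 further: after 72 h compound incubation with CellTiter-Glo ATP readout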
Consider the following compounds; for each one, report its EC50.
One number for each entry, in nM.

| compound | measured.number |
| --- | --- |
| COCc1ccccc1NCc1ccc([C@H]2[C@@H](O)CCCc3cncn32)c(-c2ccccc2Cl)c1 [CSN5i-2] | 677 |
| CC(C)C[C@H](NC(=O)[C@H](Cc1ccccc1)NC(=O)c1cnccn1)B(O)O [Bortezomib] | 9.17 |

Here is the next item to consider.
Answer with the recorded EC50 for the compound listed here: NS(=O)(=O)OC[C@@H]1C[C@@H](n2ccc3c(N[C@H]4CCc5ccccc54)ncnc32)C[C@@H]1O [MLN4924]
240

* * *

Exercise: state measured EC50 for each of the compounds provided.
tested on: panel of cancer cell lines; assay: Cell viability (CellTiter-Glo) dose-response across cancer cell line panel; type: cell-based, human; settings: Homo sapiens, NCI-H2452, NCI-H2452;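 further: after 72 h compound incubation with CellTiter-Glo ATP readout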

| structure.string | result |
| --- | --- |
| NS(=O)(=O)OC[C@@H]1C[C@@H](n2ccc3c(N[C@H]4CCc5ccccc54)ncnc32)C[C@@H]1O | 1810 nM |
| COCc1ccccc1NCc1ccc([C@H]2[C@@H](O)CCCc3cncn32)c(-c2ccccc2Cl)c1 | 1940 nM |

// Input: `CC(C)C[C@H](NC(=O)[C@H](Cc1ccccc1)NC(=O)c1cnccn1)B(O)O` . Output its EC50 only.
21.7 nM

* * *

Tested on: panel of cancer cell lines
Assay: Cell viability (CellTiter-Glo) dose-response across cancer cell line panel;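 further: after 72 h compound incubation with CellTiter-Glo ATP readout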
Type: cell-based, human
Details: Homo sapiens, GR-M
Experimental: Next, we explored the effect of CSN5 inhibition on the viability of cancer cells. […] A standardized CellTiter-Glo Assay (Promega #G7570) based on the quantification of ATP was applied according to the manufacturer's protocol to measure the amount of viable cells in culture. […] EC50 values were calculated from the plot of percentage of inhibition versus inhibitor concentration using the nonlinear regression analysis software Origin 7.5SR6 (OriginLab Corp.).
readout: pEC50
Numbers only, as −log10 of the molar value.

Report the value of pEC50 obtained on panel of cancer cell lines for `CC(C)C[C@H](NC(=O)[C@H](Cc1ccccc1)NC(=O)c1cnccn1)B(O)O` .
8.15

* * *

test system: panel of cancer cell lines; experiment: Cell viability (CellTiter-Glo) dose-response across cancer cell line panel; format: cell-based, human; conditions: Homo sapiens, SK-LU-1, SK-LU-1;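 further: after 72 h compound incubation with CellTiter-Glo ATP readout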
readout: pEC50
Give bare numbers, as −log10 of the molar value.

For every listed record, write down its pEC50.
1. NS(=O)(=O)OC[C@@H]1C[C@@H](n2ccc3c(N[C@H]4CCc5ccccc54)ncnc32)C[C@@H]1O
2. CC(C)C[C@H](NC(=O)[C@H](Cc1ccccc1)NC(=O)c1cnccn1)B(O)O
3. COCc1ccccc1NCc1ccc([C@H]2[C@@H](O)CCCc3cncn32)c(-c2ccccc2Cl)c1

[6.04, 8.02, 5.47]

* * *

tested on: panel of cancer cell lines; assay: Cell viability (CellTiter-Glo) dose-response across cancer cell line panel; type: cell-based, human; settings: Homo sapiens, HEC-151 cells;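 further: after 72 h compound incubation with CellTiter-Glo ATP readout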
readout: pEC50
One number for each entry, as −log10 of the molar value.

Provide only the value of recorded pEC50 for COCc1ccccc1NCc1ccc([C@@H]2[C@H](O)CCCc3cncn32)c(-c2ccccc2Cl)c1 [CSN5i-2e]
4.96

* * *

tested on: panel of cancer cell lines; assay: Cell viability (CellTiter-Glo) dose-response across cancer cell line panel; type: cell-based, human; conditions: Homo sapiens, A101D, A101D cells;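 further: after 72 h compound incubation with CellTiter-Glo ATP readout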
readout: EC50 (µM)
Answers are plain numbers, in µM.

Give EC50 only, for COCc1ccccc1NCc1ccc([C@@H]2[C@H](O)CCCc3cncn32)c(-c2ccccc2Cl)c1 [CSN5i-2e] , using panel of cancer cell lines data.
9.82

* * *

system: panel of cancer cell lines; assay: Cell viability (CellTiter-Glo) dose-response across cancer cell line panel; assay type: cell-based, human; conditions: Homo sapiens, MDST8, MDST8 cells;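 further: after 72 h compound incubation with CellTiter-Glo ATP readout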
readout: EC50 (µM)
Numbers only, in µM.

Give me measured EC50, please, for this compound: COCc1ccccc1NCc1ccc([C@@H]2[C@H](O)CCCc3cncn32)c(-c2ccccc2Cl)c1 [CSN5i-2e]
11.2

* * *

Assign EC50 to each entry below.
test system: panel of cancer cell lines; test: Cell viability (CellTiter-Glo) dose-response across cancer cell line panel; type: cell-based, human; settings: Homo sapiens, MDA-MB-435S;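 further: after 72 h compound incubation with CellTiter-Glo ATP readout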
Numbers only, in µM.

| compound | unit.of.measurement | EC50 |
| --- | --- | --- |
| COCc1ccccc1NCc1ccc([C@H]2[C@@H](O)CCCc3cncn32)c(-c2ccccc2Cl)c1 [CSN5i-2] | µM | 4.47 |

Now for the compound whose EC50 we want.
Please look at this compound and report its EC50: NS(=O)(=O)OC[C@@H]1C[C@@H](n2ccc3c(N[C@H]4CCc5ccccc54)ncnc32)C[C@@H]1O [MLN4924]
3.55

* * *

Tested on: panel of cancer cell lines
Assay: Cell viability (CellTiter-Glo) dose-response across cancer cell line panel;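 further: after 72 h compound incubation with CellTiter-Glo ATP readout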
Format: cell-based, human
Conditions: Homo sapiens, AM-38, AM-38 cells
Protocol: Next, we explored the effect of CSN5 inhibition on the viability of cancer cells. […] A standardized CellTiter-Glo Assay (Promega #G7570) based on the quantification of ATP was applied according to the manufacturer's protocol to measure the amount of viable cells in culture. […] EC50 values were calculated from the plot of percentage of inhibition versus inhibitor concentration using the nonlinear regression analysis software Origin 7.5SR6 (OriginLab Corp.).
readout: pEC50
Answers are plain numbers, as −log10 of the molar value.

State, for panel of cancer cell lines, measured pEC50 of the compound listed here: `COCc1ccccc1NCc1ccc([C@@H]2[C@H](O)CCCc3cncn32)c(-c2ccccc2Cl)c1`
4.92

* * *

System: panel of cancer cell lines
Assay: Cell viability (CellTiter-Glo) dose-response across cancer cell line panel;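 further: after 72 h compound incubation with CellTiter-Glo ATP readout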
Type: cell-based, human
Conditions: Homo sapiens, GAMG, cell line GAMG
Method: Next, we explored the effect of CSN5 inhibition on the viability of cancer cells. […] A standardized CellTiter-Glo Assay (Promega #G7570) based on the quantification of ATP was applied according to the manufacturer's protocol to measure the amount of viable cells in culture. […] EC50 values were calculated from the plot of percentage of inhibition versus inhibitor concentration using the nonlinear regression analysis software Origin 7.5SR6 (OriginLab Corp.).
readout: EC50 (µM)
One number for each entry, in µM.

Give the reported value of EC50 for this record: `CC(C)C[C@H](NC(=O)[C@H](Cc1ccccc1)NC(=O)c1cnccn1)B(O)O`
0.0177

* * *

Give EC50 for every item shown.
test system: panel of cancer cell lines; experiment: Cell viability (CellTiter-Glo) dose-response across cancer cell line panel; type: cell-based, human; details: Homo sapiens, Sq-1;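 further: after 72 h compound incubation with CellTiter-Glo ATP readout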

| compound | EC50 |
| --- | --- |
| COCc1ccccc1NCc1ccc([C@H]2[C@@H](O)CCCc3cncn32)c(-c2ccccc2Cl)c1 [CSN5i-2] | 1270 nM |

For the compound NS(=O)(=O)OC[C@@H]1C[C@@H](n2ccc3c(N[C@H]4CCc5ccccc54)ncnc32)C[C@@H]1O [MLN4924] , give its measured EC50 value.
164 nM

* * *

Test system: panel of cancer cell lines
Assay: Cell viability (CellTiter-Glo) dose-response across cancer cell line panel;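 further: after 72 h compound incubation with CellTiter-Glo ATP readout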
Assay type: cell-based, human
Settings: Homo sapiens, Karpas-620, KARPAS-620
Protocol: Next, we explored the effect of CSN5 inhibition on the viability of cancer cells. […] A standardized CellTiter-Glo Assay (Promega #G7570) based on the quantification of ATP was applied according to the manufacturer's protocol to measure the amount of viable cells in culture. […] EC50 values were calculated from the plot of percentage of inhibition versus inhibitor concentration using the nonlinear regression analysis software Origin 7.5SR6 (OriginLab Corp.).
readout: EC50

# return recorded EC50 for input `CC(C)C[C@H](NC(=O)[C@H](Cc1ccccc1)NC(=O)c1cnccn1)B(O)O`
6.17 nM
